Data origin: patent US6410558B1

Each item that follows carries a reported inhibition at 1 ppm.
- Tested on: Gaeumannomyces graminis var. tritici (Ggt)
- testSummary: In vitro Assay: mycelial growth of Ggt on minimal media agar plates containing test compound
- Format: cell-based
- reportedConditions: Gaeumannomyces graminis; 1 ppm in minimal media agar; dark, 19-20° C., 4 to 5 days; diameter of mycelial growth; read-out: In vitro (ppm) 1, Percent Inhibition
Answer with a number only, understood to be in %.

{"columns": ["molecule", "inhibition at 1 ppm (%)"],
 "data": [
  ["C[Si](C)(C)c1cccc(Cl)c1C(=O)NCc1ccco1 [Example 32]", 100],
  ["C=CCNC(=O)c1c(Cl)cccc1[Si](C)(C)C [Example 106]", 95]
]}

The record that follows has no inhibition at 1 ppm shown yet.
Data request: Quick check: inhibition at 1 ppm of C[Si](C)(C)c1cccc(Cl)c1C(=O)NC1CCCCC1 [Example 129] ?
Data returned: 35

----------
- System: Gaeumannomyces graminis var. tritici (Ggt)
- testSummary: In vitro Assay: mycelial growth of Ggt on minimal media agar plates containing test compound
- Type: cell-based
- reportedConditions: Gaeumannomyces graminis; 1 ppm in minimal media agar; dark, 19-20° C., 4 to 5 days; diameter of mycelial growth; read-out: In vitro (ppm) 1, Percent Inhibition
valueKind: inhibition at 1 ppm

Example compounds with recorded inhibition at 1 ppm:
{"columns": ["structureAsSmiles", "inhibition at 1 ppm"],
 "data": [
  ["CCN(CC)C(=S)c1cccc(F)c1[Si](C)(C)C", "31%"],
  ["CCNC(=O)c1ccccc1N(C)C(C)(C)C", "71%"],
  ["CCN(C(=O)OC(C)(C)C)C(=O)c1c(Cl)cccc1[Si](C)(C)C", "82%"]
]}

Data request: Quick check: inhibition at 1 ppm of CCN(C(C)=O)C(=O)c1c(Cl)cccc1[Si](C)(C)C ?
Data returned: < 0%

Data request: Quick check: inhibition at 1 ppm of CCNC(=O)c1sc(C=O)cc1[Si](C)(C)C ?
Data returned: 19%

Data request: Quick check: inhibition at 1 ppm of CCOC(=O)Nc1c(Cl)cccc1[Si](C)(C)C ?
Data returned: 10%

Data request: Quick check: inhibition at 1 ppm of CCN(CC)C(=O)c1c(Cl)ccc(F)c1[Si](C)(C)C ?
Data returned: 79%

Data request: Quick check: inhibition at 1 ppm of CC[C@H](C)NC(=O)c1c(Cl)cccc1[Si](C)(C)C ?
Data returned: 71%

Data request: Quick check: inhibition at 1 ppm of CCNC(=O)c1c(Cl)cccc1[Si](C)(C)C(C)C ?
Data returned: 82%

Data request: Quick check: inhibition at 1 ppm of CCNC(=S)c1c(Cl)cccc1[Si](C)(C)C ?
Data returned: 45%

Data request: Quick check: inhibition at 1 ppm of COc1cccc(CNC(=O)c2c(Cl)cccc2[Si](C)(C)C)c1 ?
Data returned: 53%

Data request: Quick check: inhibition at 1 ppm of COCCNC(=O)c1c(Cl)cccc1[Si](C)(C)C ?
Data returned: 65%

Data request: Quick check: inhibition at 1 ppm of CCN(CC)C(=O)c1c(I)ccc(F)c1[Si](C)(C)C ?
Data returned: < 0%

Data request: Quick check: inhibition at 1 ppm of CCN(CC)C(=O)c1c(C(F)F)ccc(F)c1[Si](C)(C)C ?
Data returned: 81%

Data request: Quick check: inhibition at 1 ppm of CN(CC=Cc1ccccc1)C(=O)c1c(Cl)cccc1[Si](C)(C)C ?
Data returned: 37%

Data request: Quick check: inhibition at 1 ppm of CC(C)N(C(=O)c1c(Cl)cccc1[Si](C)(C)C)C(C)C ?
Data returned: 4%

Data request: Quick check: inhibition at 1 ppm of CCN(CC)C(=O)c1c([Si](C)(C)C)ccc(F)c1Cl ?
Data returned: < 0%

----------
- Test system: Gaeumannomyces graminis var. tritici (Ggt)
- testSummary: In vitro Assay: mycelial growth of Ggt on minimal media agar plates containing test compound
- Format: cell-based
- reportedConditions: Gaeumannomyces graminis; 1 ppm in minimal media agar; dark, 19-20° C., 4 to 5 days; diameter of mycelial growth; read-out: In vitro (ppm) 1, Percent Inhibition
Parameter threshold = 50%. Response is criterion met when inhibition at 1 ppm meets or exceeds it, else criterion not met.

The examples below pair each entry with its known result.
{"columns": ["compound", "labelClass"],
 "data": [
  ["CCNC(=O)c1c(F)cccc1[S+]([O-])C(C)(C)C (centres unmarked)", "criterion met"],
  ["CCN(CC)C(=O)c1c(C)ccc(F)c1[Si](C)(C)C", "criterion met"],
  ["CCNC(=O)Nc1c(Cl)cccc1[Si](C)(C)C", "criterion not met"],
  ["CCNC(=O)n1cccc1[Si](C)(C)C", "criterion not met"],
  ["C[Si](C)(C)c1cccc(Cl)c1C(=O)NCCBr", "criterion met"]
]}

Shifting focus to the compound that follows.
Data request: API: above_or_equal(metric=inhibition at 1 ppm, cutoff=50%) for item CC(C)NC(=O)NC(=O)c1c(Cl)cccc1[Si](C)(C)C
Data returned: criterion not met

----------
Each item that follows carries a reported inhibition at 0.1 ppm.
- Tested on: Gaeumannomyces graminis var. tritici (Ggt)
- testSummary: In vitro Assay: mycelial growth of Ggt on minimal media agar plates containing test compound
- Assay type: cell-based
- reportedConditions: Gaeumannomyces graminis; 0.1 ppm in minimal media agar; dark, 19-20° C., 4 to 5 days; diameter of mycelial growth; read-out: In vitro (ppm) 0.1, Percent Inhibition
Answer with a number only, understood to be in %.

Example compounds with recorded inhibition at 0.1 ppm:
{"columns": ["compound", "assayedSystem", "units", "numericResult"],
 "data": [
  ["C[Si](C)(C)c1cccc(I)c1C(=O)NC1CC1", "Gaeumannomyces graminis var. tritici (Ggt)", "%", 28],
  ["CCNC(=O)c1c([Si](C)(C)C)sc2c1CCCC2", "Gaeumannomyces graminis var. tritici (Ggt)", "%", 96],
  ["CCNC(=O)c1c(Cl)cc(C=O)cc1[Si](C)(C)C", "Gaeumannomyces graminis var. tritici (Ggt)", "%", 35]
]}

Data request: Quick check: inhibition at 0.1 ppm of CCNC(=O)c1c(F)cccc1C1(C)CCCC1 ?
Data returned: 11

Data request: Quick check: inhibition at 0.1 ppm of CC(NC(=O)c1c(Cl)cccc1[Si](C)(C)C)c1ccccc1 (centres unmarked) ?
Data returned: 22

Data request: Quick check: inhibition at 0.1 ppm of C[Si](C)(C)c1cccc(Cl)c1C(=O)N1CCOCC1 ?
Data returned: 54

Data request: Quick check: inhibition at 0.1 ppm of CCNC(=O)c1sc([Si](C)(C)C)cc1[Si](C)(C)C ?
Data returned: 17

Data request: Quick check: inhibition at 0.1 ppm of CCNC(=O)c1c(Cl)ccc([N+](=O)[O-])c1[Si](C)(C)C ?
Data returned: 46

Data request: Quick check: inhibition at 0.1 ppm of CN(CC=Cc1ccccc1)C(=O)c1c(Cl)cccc1[Si](C)(C)C ?
Data returned: 3

Data request: Quick check: inhibition at 0.1 ppm of CCNC(=O)c1cc(Cl)ccc1[Si](C)(C)C ?
Data returned: 9

Data request: Quick check: inhibition at 0.1 ppm of CCN(CC)C(=S)c1ccc(C)c(F)c1[Si](C)(C)C ?
Data returned: 5

----------
Each item that follows carries a reported inhibition at 1 ppm.
- Test system: Gaeumannomyces graminis var. tritici (Ggt)
- testSummary: In vitro Assay: mycelial growth of Ggt on minimal media agar plates containing test compound
- Assay type: cell-based
- reportedConditions: Gaeumannomyces graminis; 1 ppm in minimal media agar; dark, 19-20° C., 4 to 5 days; diameter of mycelial growth; read-out: In vitro (ppm) 1, Percent Inhibition
Answer with a number only, understood to be in %.

Example compounds with recorded inhibition at 1 ppm:
{"columns": ["compound", "inhibition at 1 ppm / %"],
 "data": [
  ["CCN(CC)C(=S)c1ccc(C)c(F)c1[Si](C)(C)C", 26],
  ["CCNC(=O)c1cc(N=C=S)ccc1[Si](C)(C)C", 100],
  ["Cc1ccccc1NC(=O)c1c(Cl)cccc1[Si](C)(C)C", 44]
]}

Data request: Find the measured inhibition at 1 ppm: item CCN(CO)C(=O)c1c(C)cccc1[Si](C)(C)C , target or system Gaeumannomyces graminis var. tritici (Ggt).
Data returned: 13

----------
- System: Gaeumannomyces graminis var. tritici (Ggt)
- testSummary: In vitro Assay: mycelial growth of Ggt on minimal media agar plates containing test compound
- Assay type: cell-based
- reportedConditions: Gaeumannomyces graminis; 1 ppm in minimal media agar; dark, 19-20° C., 4 to 5 days; diameter of mycelial growth; read-out: In vitro (ppm) 1, Percent Inhibition
valueKind: inhibition at 1 ppm (%)
Answer with a number only, understood to be in %.

Example compounds with recorded inhibition at 1 ppm:
{"columns": ["compound", "assayedSystem", "numericResult"],
 "data": [
  ["CCNC(=O)c1c(F)cccc1C1(C)CCCC1 [Example 123]", "Gaeumannomyces graminis var. tritici (Ggt)", 78],
  ["C=CCN(SC)C(=O)c1sc(Cl)cc1[Si](C)(C)C [Example 273]", "Gaeumannomyces graminis var. tritici (Ggt)", 48],
  ["COc1ccccc1NC(=O)c1c(Cl)cccc1[Si](C)(C)C [Example 159]", "Gaeumannomyces graminis var. tritici (Ggt)", 55],
  ["CCN(CC)C(=O)c1c([Si](C)(C)C)ccc([Si](C)(C)C)c1Cl [Example 86]", "Gaeumannomyces graminis var. tritici (Ggt)", 24],
  ["C[Si](C)(C)c1cccc(Cl)c1C(=O)NCC(F)(F)F [Example 25]", "Gaeumannomyces graminis var. tritici (Ggt)", 15]
]}

Data request: Quick check: inhibition at 1 ppm of CN(C)NC(=O)c1c([Si](C)(C)C)ccc(Cl)c1Cl [Example 205] ?
Data returned: 47

Data request: Quick check: inhibition at 1 ppm of CCN=C(SCC)c1c(Cl)cccc1[Si](C)(C)C [Example 169] ?
Data returned: 31
